Quick list: Binding AUC per entry.
Target: T1, recombinant SARS-CoV-2 Spike RBD domain, XBB.1.5 variant (SARS-CoV-2)
T1 construct: also called RBD XBB.1.5 variant
Assay: ELISA on coated RBD
Simply state the number, no unit and no words.

{"binder": "SPK002M C2 antibody (antibody, human IgG1, kappa, V domains shown) VH: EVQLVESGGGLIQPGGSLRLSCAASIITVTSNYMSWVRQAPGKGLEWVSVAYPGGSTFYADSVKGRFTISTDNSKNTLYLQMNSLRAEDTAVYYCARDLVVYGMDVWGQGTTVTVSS VL: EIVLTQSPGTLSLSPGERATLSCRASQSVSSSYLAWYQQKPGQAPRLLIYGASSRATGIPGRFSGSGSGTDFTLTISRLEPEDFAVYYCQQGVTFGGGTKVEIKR", "Binding AUC": 31}
{"binder": "SPK002M B2 antibody (antibody, human IgG1, kappa, V domains shown) VH: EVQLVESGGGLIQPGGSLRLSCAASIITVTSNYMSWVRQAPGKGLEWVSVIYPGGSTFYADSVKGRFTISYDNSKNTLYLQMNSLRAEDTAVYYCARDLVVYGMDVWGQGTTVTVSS VL: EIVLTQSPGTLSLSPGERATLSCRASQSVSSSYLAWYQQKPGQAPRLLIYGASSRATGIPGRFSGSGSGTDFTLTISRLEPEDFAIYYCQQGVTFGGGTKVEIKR", "Binding AUC": 32}
{"binder": "SPK002M C3 antibody (antibody, human IgG1, kappa, V domains shown) VH: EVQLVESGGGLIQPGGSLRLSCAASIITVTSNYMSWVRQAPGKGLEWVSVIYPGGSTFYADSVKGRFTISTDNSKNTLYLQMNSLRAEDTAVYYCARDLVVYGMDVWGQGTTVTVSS VL: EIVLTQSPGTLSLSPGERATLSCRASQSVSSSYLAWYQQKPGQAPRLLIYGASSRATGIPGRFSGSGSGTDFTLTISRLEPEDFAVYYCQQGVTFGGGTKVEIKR", "Binding AUC": 32}
{"binder": "SPK002M A2 antibody (antibody, human IgG1, kappa, V domains shown) VH: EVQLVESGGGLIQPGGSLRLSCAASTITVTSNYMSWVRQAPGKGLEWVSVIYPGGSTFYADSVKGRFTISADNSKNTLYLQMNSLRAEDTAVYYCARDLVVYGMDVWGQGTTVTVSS VL: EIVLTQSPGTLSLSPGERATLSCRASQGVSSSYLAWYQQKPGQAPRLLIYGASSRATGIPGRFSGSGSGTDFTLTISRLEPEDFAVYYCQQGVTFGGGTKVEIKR", "Binding AUC": 36}

Now look at this entry.
[ask] Look up Binding AUC: SPK002M A5 antibody (antibody, human IgG1, kappa, V domains shown) VH: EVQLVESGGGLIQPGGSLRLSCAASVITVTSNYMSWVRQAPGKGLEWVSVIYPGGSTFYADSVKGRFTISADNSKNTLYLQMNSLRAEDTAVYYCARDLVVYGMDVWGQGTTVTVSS VL: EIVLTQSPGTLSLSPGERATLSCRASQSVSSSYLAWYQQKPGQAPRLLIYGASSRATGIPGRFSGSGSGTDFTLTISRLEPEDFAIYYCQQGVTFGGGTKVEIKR
[reply] 35
